Test system: 855422-203-R-J1-PDC complex spheroid viability;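 note: drug exposure lasted 7 days starting on day 3 after seeding; luminescence viability as percent of DMSO vehicle wells = 100%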
assay.details: Anticancer human tumor 855422-203-R-J1-PDC patient-derived bladder carcinoma cell line growth inhibition
measurement.parameters: second compound 0.1 µM; first compound 0.949 µM; active compounds read low
metric: viability, T/C

Below: 3 molecules and their reported viability, T/C.
Query string: Find the recorded viability, T/C belonging to O=C(C=Cc1cccc(S(=O)(=O)Nc2ccccc2)c1)NO + NC1CCC(NC2CC2c2ccccc2)CC1 and report it.
Result string: 15.2%

Query string: I have this molecule here, COc1cc(C2c3cc4c(cc3C(OC3OC5COC(C)OC5C(O)C3O)C3COC(=O)C23)OCO4)cc(OC)c1O (centres undefined) + NC1CC1c1ccc(-c2cccc(O)c2)cc1 , and I need its recorded viability, T/C.
Result string: 19.7%

Query string: Which viability, T/C is reported for this molecule? CCN(c1cc(-c2ccc(CN3CCOCC3)cc2)cc(C(=O)NCc2c(C)cc(C)[nH]c2=O)c1C)C1CCOCC1 + NC1CC1c1ccc(-c2cccc(O)c2)cc1
Result string: 89%

Kindly review the next molecule as well.
Query string: # get_value(readout='viability, T/C', item= NS(=O)(=O)OCC1CC(n2ccc3c(NC4CCc5ccccc54)ncnc32)CC1O (centres undefined) + NC1CCC(NC2CC2c2ccccc2)CC1 )
Result string: 36.9%
